Test: Solubility at pH 7.4
Assay type: physicochemical
Settings: buffer
Result Type: solubility

In [3]: df
Out[3]:
                         compound_structure  endpoint_value
0  CCc1nc(C)c(CN2CCN(c3cccc4[nH]c(-c5ccc(C(C)(C)C)cc5)nc34)CC2)[nH]1        20 µg/mL
1  CCc1nc(CN2CCN(c3cccn4cc(-c5ccc(C(C)(C)C)cc5)nc34)CC2)c(C)[nH]1         3 µg/mL
2  CCn1cc(CN2CCN(c3cccn4cc(-c5ccc(C(C)(C)C)cc5)nc34)CC2)c(=O)[nH]c1=O         6 µg/mL
3  CCn1cnc(CN2CCN(c3cccc4[nH]c(-c5ccc(C(C)(C)C)cc5)nc34)CC2)c1C         3 µg/mL
4  CCn1cnc(CN2CCN(c3cccn4cc(-c5ccc(C(C)(C)C)cc5)nc34)CC2)c1C         9 µg/mL

* * *

Molecular target: Gonadotropin-releasing hormone receptor (Homo sapiens)
Sequence (P30968 whole entry): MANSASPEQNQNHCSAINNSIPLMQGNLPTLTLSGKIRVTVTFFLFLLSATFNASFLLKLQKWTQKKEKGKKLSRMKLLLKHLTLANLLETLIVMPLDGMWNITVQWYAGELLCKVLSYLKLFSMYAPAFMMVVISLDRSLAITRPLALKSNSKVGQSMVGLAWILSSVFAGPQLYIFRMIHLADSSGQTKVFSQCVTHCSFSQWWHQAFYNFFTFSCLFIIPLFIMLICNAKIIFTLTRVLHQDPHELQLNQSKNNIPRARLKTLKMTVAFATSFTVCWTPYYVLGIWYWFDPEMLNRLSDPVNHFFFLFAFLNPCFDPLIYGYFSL
Assay: Antagonist activity at human recombinant GNRH receptor assessed as inhibition of D-Trp6-GNRH-induced IP accumulation after 1 hr by rapid filtration assay
Format: functional
pIC50: −log10 of the molar value.
pIC50 for assorted compounds
Result Type: pIC50

>>> df
                         compound_structure                               measured_on  result_type  endpoint_value
0  CCn1cc(CN2CCN(c3cccn4cc(-c5ccc(C(C)(C)C)cc5)nc34)CC2)c(=O)[nH]c1=O  Gonadotropin-releasing hormone receptor (Homo sapiens)        pIC50            8.30
1  CCn1cnc(CN2CCN(c3cccn4cc(-c5ccc(C(C)(C)C)cc5)nc34)CC2)c1C  Gonadotropin-releasing hormone receptor (Homo sapiens)        pIC50            7.39
2  CCc1nc(C)c(CN2CCN(c3cccc4[nH]c(-c5ccc(C(C)(C)C)cc5)nc34)CC2)[nH]1  Gonadotropin-releasing hormone receptor (Homo sapiens)        pIC50            7.74
3  CCc1nc(CN2CCN(c3cccn4cc(-c5ccc(C(C)(C)C)cc5)nc34)CC2)c(C)[nH]1  Gonadotropin-releasing hormone receptor (Homo sapiens)        pIC50            7.22
4  CC(C)(C)c1ccc(-c2cn3cccc(N4CCN(Cc5ccc6nccnc6c5)CC4)c3n2)cc1  Gonadotropin-releasing hormone receptor (Homo sapiens)        pIC50            7.05
5  CC(C)(C)c1ccc(-c2cn3cccc(N4CCN(Cc5cnc6ccccc6n5)CC4)c3n2)cc1  Gonadotropin-releasing hormone receptor (Homo sapiens)        pIC50            7.41
6  CCn1cnc(CN2CCN(c3cccc4[nH]c(-c5ccc(C(C)(C)C)cc5)nc34)CC2)c1C  Gonadotropin-releasing hormone receptor (Homo sapiens)        pIC50            7.82
7  CC(C)(C)c1ccc(-c2cn3cccc(N4CCN(Cc5c[nH]c(=O)[nH]c5=O)CC4)c3n2)cc1  Gonadotropin-releasing hormone receptor (Homo sapiens)        pIC50            7.70
